molecular target: low-density lipoprotein receptor related protein-1 (LRP-1) on IMG microglial cells (UniProt Q91ZX7 20-4545, limits assumed); test: cell-based or functional assay
Sequence (Q91ZX7 20-4545 limits assumed): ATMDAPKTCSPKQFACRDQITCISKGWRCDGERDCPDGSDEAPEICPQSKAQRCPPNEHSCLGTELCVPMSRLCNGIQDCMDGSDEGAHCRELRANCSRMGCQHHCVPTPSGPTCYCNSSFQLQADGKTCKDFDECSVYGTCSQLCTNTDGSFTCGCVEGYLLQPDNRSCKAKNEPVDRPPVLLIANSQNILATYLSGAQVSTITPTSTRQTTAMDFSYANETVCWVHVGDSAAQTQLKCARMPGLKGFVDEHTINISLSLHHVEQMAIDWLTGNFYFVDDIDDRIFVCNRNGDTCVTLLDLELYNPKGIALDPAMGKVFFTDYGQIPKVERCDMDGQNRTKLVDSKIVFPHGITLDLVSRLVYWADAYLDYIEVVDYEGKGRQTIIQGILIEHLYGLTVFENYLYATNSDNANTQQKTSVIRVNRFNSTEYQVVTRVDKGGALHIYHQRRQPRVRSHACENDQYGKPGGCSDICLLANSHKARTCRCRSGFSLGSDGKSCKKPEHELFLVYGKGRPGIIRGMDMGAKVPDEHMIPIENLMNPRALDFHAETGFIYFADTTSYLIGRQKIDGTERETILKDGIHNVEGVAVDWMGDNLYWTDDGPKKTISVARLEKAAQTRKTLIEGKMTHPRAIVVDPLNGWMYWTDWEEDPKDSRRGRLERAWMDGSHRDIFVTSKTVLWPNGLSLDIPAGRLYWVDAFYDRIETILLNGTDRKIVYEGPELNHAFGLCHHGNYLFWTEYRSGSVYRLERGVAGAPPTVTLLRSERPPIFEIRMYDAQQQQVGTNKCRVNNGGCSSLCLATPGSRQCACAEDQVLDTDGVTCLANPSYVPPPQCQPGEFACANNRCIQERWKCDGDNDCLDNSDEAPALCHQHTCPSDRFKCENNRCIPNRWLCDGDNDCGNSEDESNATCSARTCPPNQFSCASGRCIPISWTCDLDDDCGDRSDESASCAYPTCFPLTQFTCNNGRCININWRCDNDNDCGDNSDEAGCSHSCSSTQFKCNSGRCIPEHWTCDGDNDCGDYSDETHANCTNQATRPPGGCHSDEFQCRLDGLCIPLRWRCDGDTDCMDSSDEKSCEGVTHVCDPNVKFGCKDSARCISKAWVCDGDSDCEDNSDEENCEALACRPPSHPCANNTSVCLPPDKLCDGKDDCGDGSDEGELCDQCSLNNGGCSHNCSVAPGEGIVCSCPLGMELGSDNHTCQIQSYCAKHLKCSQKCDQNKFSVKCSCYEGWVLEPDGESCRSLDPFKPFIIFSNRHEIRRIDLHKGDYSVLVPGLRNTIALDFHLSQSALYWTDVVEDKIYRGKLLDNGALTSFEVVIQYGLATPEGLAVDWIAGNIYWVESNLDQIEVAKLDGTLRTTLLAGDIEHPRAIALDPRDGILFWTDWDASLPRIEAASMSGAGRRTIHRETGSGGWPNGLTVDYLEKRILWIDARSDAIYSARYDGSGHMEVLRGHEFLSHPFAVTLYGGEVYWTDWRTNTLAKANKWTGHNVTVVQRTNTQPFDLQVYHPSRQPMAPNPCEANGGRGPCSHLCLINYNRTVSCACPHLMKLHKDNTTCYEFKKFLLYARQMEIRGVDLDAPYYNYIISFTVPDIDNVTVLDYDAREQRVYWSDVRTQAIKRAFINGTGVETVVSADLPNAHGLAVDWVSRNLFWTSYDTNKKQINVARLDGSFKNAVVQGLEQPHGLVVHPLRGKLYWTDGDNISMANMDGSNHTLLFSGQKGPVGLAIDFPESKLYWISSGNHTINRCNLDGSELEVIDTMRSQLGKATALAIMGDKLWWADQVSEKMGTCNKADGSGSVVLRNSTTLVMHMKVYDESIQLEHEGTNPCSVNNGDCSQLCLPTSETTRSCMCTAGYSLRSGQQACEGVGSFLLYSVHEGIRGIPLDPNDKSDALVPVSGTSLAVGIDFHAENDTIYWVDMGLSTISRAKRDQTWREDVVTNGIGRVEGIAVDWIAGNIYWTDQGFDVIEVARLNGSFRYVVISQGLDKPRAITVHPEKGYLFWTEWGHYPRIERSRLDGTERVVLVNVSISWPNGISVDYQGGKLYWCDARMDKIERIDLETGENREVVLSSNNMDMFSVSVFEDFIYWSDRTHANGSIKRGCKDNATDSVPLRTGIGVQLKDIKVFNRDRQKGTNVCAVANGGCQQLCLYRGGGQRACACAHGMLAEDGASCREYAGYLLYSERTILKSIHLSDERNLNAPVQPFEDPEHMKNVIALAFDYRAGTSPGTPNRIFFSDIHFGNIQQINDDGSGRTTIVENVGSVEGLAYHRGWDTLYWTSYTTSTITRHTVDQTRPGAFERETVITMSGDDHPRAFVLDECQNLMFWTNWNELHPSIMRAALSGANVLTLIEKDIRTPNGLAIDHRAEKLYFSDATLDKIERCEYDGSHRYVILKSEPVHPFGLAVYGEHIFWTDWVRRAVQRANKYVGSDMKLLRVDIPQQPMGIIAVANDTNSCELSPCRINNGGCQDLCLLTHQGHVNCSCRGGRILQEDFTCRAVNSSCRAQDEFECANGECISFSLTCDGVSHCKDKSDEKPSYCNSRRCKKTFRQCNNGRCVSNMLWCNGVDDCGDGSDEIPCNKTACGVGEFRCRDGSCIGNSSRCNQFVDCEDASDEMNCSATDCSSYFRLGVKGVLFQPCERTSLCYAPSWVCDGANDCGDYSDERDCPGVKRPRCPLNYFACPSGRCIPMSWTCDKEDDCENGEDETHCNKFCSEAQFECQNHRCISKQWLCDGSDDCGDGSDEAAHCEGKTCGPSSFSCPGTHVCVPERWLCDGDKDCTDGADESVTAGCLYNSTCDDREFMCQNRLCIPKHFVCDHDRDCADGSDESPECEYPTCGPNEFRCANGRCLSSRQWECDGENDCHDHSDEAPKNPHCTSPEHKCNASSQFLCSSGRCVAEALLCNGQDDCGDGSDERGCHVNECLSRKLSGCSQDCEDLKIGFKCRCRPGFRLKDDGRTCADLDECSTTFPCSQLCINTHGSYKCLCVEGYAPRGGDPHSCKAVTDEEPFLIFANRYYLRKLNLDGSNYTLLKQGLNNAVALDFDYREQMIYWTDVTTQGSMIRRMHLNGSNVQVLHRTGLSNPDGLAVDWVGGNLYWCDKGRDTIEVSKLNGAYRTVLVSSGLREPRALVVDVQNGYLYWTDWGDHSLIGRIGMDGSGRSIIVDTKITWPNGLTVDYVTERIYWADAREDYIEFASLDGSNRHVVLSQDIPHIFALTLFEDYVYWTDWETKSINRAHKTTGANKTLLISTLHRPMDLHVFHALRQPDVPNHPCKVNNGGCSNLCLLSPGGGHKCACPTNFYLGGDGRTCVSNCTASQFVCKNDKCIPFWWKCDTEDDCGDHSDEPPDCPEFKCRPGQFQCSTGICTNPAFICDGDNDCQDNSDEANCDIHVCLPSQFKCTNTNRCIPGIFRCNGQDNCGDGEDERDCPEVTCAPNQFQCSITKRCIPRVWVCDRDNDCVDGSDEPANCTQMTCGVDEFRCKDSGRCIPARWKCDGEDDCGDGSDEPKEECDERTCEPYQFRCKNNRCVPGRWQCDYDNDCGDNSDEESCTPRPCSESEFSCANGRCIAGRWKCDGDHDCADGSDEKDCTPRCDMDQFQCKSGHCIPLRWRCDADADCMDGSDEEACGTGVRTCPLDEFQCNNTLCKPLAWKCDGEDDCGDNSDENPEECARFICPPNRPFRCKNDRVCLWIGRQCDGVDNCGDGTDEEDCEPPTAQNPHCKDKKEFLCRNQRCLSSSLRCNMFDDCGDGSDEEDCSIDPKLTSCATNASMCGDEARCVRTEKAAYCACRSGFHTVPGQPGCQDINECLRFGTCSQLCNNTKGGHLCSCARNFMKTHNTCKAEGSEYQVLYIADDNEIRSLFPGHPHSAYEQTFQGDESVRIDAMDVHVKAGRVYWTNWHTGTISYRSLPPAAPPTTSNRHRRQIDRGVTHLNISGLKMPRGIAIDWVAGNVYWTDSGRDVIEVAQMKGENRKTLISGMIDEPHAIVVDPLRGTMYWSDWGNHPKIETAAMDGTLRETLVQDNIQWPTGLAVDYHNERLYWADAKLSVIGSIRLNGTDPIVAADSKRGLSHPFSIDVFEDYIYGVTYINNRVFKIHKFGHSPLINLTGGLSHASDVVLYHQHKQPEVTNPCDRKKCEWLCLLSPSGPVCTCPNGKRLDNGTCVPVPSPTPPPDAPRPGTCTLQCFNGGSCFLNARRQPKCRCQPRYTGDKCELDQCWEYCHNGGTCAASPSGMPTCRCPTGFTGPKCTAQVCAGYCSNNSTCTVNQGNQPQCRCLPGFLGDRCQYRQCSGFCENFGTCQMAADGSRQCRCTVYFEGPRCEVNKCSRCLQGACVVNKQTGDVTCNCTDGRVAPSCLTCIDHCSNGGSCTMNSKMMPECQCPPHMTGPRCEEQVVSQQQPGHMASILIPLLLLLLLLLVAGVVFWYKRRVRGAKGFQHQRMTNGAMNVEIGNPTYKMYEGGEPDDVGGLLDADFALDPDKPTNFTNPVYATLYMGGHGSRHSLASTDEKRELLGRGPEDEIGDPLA
Positions of bridges follow the written chain, without caps; N, C: chain ends. Non-standard residues stand in square brackets, D forms with d. No end group written: not given here. Nle = CCCC[C@H](N)C(=O)O; Dap = NC[C@H](N)C(=O)O; Nal = naphthylalanine
QUANTITY KIND: EC50, IL-6 (IMG microglial cells, LPS, ELISA) (µg/mL)

>  <BINDER>
RRRAT[Nal]L[Nle]D (not fully specified (bridges); printed as HN- RRRAT[Nal]L[NIe]D (cyclic); also: cyclic, ring not given here) [SERPIN peptide derivative A3-14, HN-RRRAT[Nal]L[Nle]D (cyclic)]

>  <READING UNIT>
µg/mL

>  <RECORDED NUMBER>
0.605

$$$$
>  <BINDER>
Ac-RRRKFT[Nal]LD (lactam 4-9) [SERPIN peptide derivative A3-7, Ac-RRRKFT[Nal]LD (cyclic)]

>  <READING UNIT>
µg/mL

>  <RECORDED NUMBER>
3.65

$$$$
>  <BINDER>
RRRFVFLD (not fully specified; cyclic (HN- at the N-terminus (so in the source))) [SERPIN peptide derivative A2-4, HN-RRRFVFLD (cyclic)]

>  <READING UNIT>
µg/mL

>  <RECORDED NUMBER>
11.3

$$$$
>  <BINDER>
Ac-RRRCPFVFL[Nle]C (disulfide 4-11 (inferred)) [SERPIN peptide derivative SA7, Ac-RRRCPFVFL[Nle]C (cyclic)]

>  <READING UNIT>
µg/mL

>  <RECORDED NUMBER>
318

$$$$
>  <BINDER>
RRRFVFLSD (not fully specified; D-Ser at position 8; cyclic (HN- at the N-terminus (so in the source))) [SERPIN peptide derivative A2-5, HN-RRRFVFL[dS]D (cyclic)]

>  <READING UNIT>
µg/mL

>  <RECORDED NUMBER>
1.4

$$$$
>  <BINDER>
RRRFVFLAD (not fully specified; cyclic (HN- at the N-terminus (so in the source))) [SERPIN peptide derivative A2-3, HN-RRRFVFLAD (cyclic)]

>  <READING UNIT>
µg/mL

>  <RECORDED NUMBER>
3.38

$$$$
>  <BINDER>
Ac-RRR[Dap]FT[Nal]L[Nle]D [SERPIN peptide derivative A2-1, Ac-RRR[Dap]FT[Nal]L[Nle]D (cyclic)]

>  <READING UNIT>
µg/mL

>  <RECORDED NUMBER>
9.64

$$$$
>  <BINDER>
RRRFVFLXD (not fully specified; Nle (norleucine) at position 8; cyclic: head-to-tail linker between the amino group of the N-terminal Arg and the side-chain carboxylic acid of the C-terminal Asp, ring closing length 12 C-C bonds) [SERPIN peptide derivative A15, HN-RRRFVFL[Nle]D (cyclic)]

>  <READING UNIT>
µg/mL

>  <RECORDED NUMBER>
32.4

$$$$
>  <BINDER>
RRRFVFLXD (not fully specified; D-Dap at position 8; cyclic (HN- at the N-terminus (so in the source))) [SERPIN peptide derivative A3-10, HN-RRRFVFL[dDap]D (cyclic)]

>  <READING UNIT>
µg/mL

>  <RECORDED NUMBER>
58.5

$$$$
